Test system: viable cells in culture
testProtocol: Cell viability assay (CellTiter-Glo Luminescent Cell Viability Assay, ATP quantitation, percent of vehicle control)
Examples of molecules with documented Average Cell Viability after 24 Hours (% DMSO) follow.
quantityMeasured: Average Cell Viability after 24 Hours (% DMSO)

molecule: O=C(O)CC12CC3CC(C1)CC(CC(=O)O)(C3)C2
obsValue: 95.78
--
molecule: CN1CCN(c2ccc(CNC(=O)c3cc(-c4cccs4)on3)cc2)CC1
obsValue: 110.86
--
molecule: c1ccc(-c2nc3ccccn3c2Nc2ccc3c(c2)OCCO3)nc1
obsValue: 64.55
--
molecule: O=C(Nc1nc(-c2ccccn2)cs1)c1ccc2ncsc2c1
obsValue: 86.42
--
molecule: COC(=O)COc1ccc(S(=O)(=O)N(C)Cc2ccccc2)cc1
obsValue: 79.96
--
molecule: CC(=O)NC(c1ccc(C)cc1)c1ccc2cccnc2c1O (stereo not shown)
obsValue: 95.15
--
molecule: Cc1nnc(SCc2cc(O)n(-c3nc4ccccc4s3)n2)s1
obsValue: 71.38
--
molecule: CCCN(CCC)S(=O)(=O)c1cccc(C(=O)Nc2nc(-c3ccccn3)cs2)c1
obsValue: 74.43
--
molecule: COc1cc(CNC2CCCC2)ccc1OCCO
obsValue: 96.61
--
molecule: O=S1(=O)CCC(N2COc3c(cc(Cl)c4cccnc34)C2)C1 (stereo not shown)
obsValue: 62.26

====

Tested on: viable cells in culture
testProtocol: Cell viability assay (CellTiter-Glo Luminescent Cell Viability Assay, ATP quantitation, percent of vehicle control)
Exam item: assign Met to entries whose Average Cell Viability after 24 Hours (% DMSO) is below 80 % DMSO and Not met to entries at or above 80 % DMSO. Note that a value of exactly 80 % DMSO receives Not met.

compound: CCOC(=O)c1ccc(Nc2nc3nonc3nc2N(CC)CC)cc1
class: Met
--
compound: O=C(O)c1ccc(NC(=S)NC(=O)c2ccccc2I)cc1
class: Not met
--
compound: Oc1c(C(Nc2ccccn2)c2ccccc2Cl)ccc2cccnc12 (centres unmarked)
class: Met
--
compound: CCOC(=O)c1sc(-n2nc(C)c(Cc3ccc(Cl)cc3)c2O)nc1C
class: Met
--
compound: Cn1c(-c2nnc(SCC(=O)NCc3nc4ccccc4n3C)o2)cc2ccccc21
class: Not met
--
compound: O=C(Cc1ccccc1)NNC1=C(C(=O)C(F)(F)F)CCC1
class: Met

====

Test system: viable cells in culture
testProtocol: Cell viability assay (CellTiter-Glo Luminescent Cell Viability Assay, ATP quantitation, percent of vehicle control)
quantityMeasured: Average Cell Viability after 24 Hours (% DMSO)

molecule: C/C(=N\NC(=O)c1ccccc1O)c1ccccc1O
scaleUnit: % DMSO
obsValue: 96.99

molecule: CC(C)CN1CC23C=CC(O2)C(C(=O)OCc2ccccc2)C3C1=O (stereo not shown)
scaleUnit: % DMSO
obsValue: 118.20

molecule: Cc1cc(NC(c2ccccn2)c2ccc3cccnc3c2O)no1 (stereo not shown)
scaleUnit: % DMSO
obsValue: 71.14

molecule: O=C1CC(CSc2nnnn2-c2ccccc2)=NN1c1nc2ccccc2[nH]1
scaleUnit: % DMSO
obsValue: 62.38

====

System: viable cells in culture
testProtocol: Cell viability assay (CellTiter-Glo Luminescent Cell Viability Assay, ATP quantitation, percent of vehicle control)
Examples of compounds with documented Average Cell Viability after 24 Hours (% DMSO) follow.
quantityMeasured: Average Cell Viability after 24 Hours (% DMSO)

compound: CCCC(=O)NC(c1ccc(N(CC)CC)cc1)c1cc(Cl)c2cccnc2c1O (stereo not shown) [compound 1070]
obsValue: 69.71

compound: COC(=O)COc1ccc(NC(=O)c2cccc(C)c2)cc1 [compound 1537]
obsValue: 67.92

compound: O=C(COc1ccc(Cl)cc1)N/N=C/c1cccc2cccnc12 [compound 1290]
obsValue: 62.81

compound: O=C(N/N=C/c1cc(Br)ccc1O)c1cc2ccccc2cc1O [compound 1269]
obsValue: 68.44

compound: O=C(N/N=C/c1ccccc1O)c1sc2ccccc2c1Cl [compound 1267]
obsValue: 38.10

compound: O=C(Nc1nc(-c2ccccn2)cs1)c1cc(Cl)sc1Cl [compound 1505]
obsValue: 70.89

compound: Oc1c(C(Nc2ccccn2)c2ccccc2Br)ccc2cccnc12 (stereo not shown) [compound 1007]
obsValue: 68.00

compound: CCCCC(=O)NC(c1ccc(Cl)cc1)c1cc([N+](=O)[O-])c2cccnc2c1O (stereo not shown) [compound 1054]
obsValue: 46.45

compound: COc1ccc(-c2cc3ccccn3c2C)cc1 [compound 1322]
obsValue: 81.69

compound: COCCNC(=O)c1cc(-c2cccs2)on1 [compound 1196]
obsValue: 98.07

compound: CCN(CC)c1ccc(C(NC(=O)C(C)C)c2ccc3cccnc3c2O)cc1 (stereo not shown) [compound 1060]
obsValue: 63.44

compound: Oc1c(C(Nc2ccccn2)c2c(Cl)cccc2Cl)ccc2cccnc12 (stereo not shown) [compound 1009]
obsValue: 68.59

compound: Cc1nn2c(-c3cccnc3)nnc2s1 [compound 1369]
obsValue: 98.38

====

Tested on: viable cells in culture
testProtocol: Cell viability assay (CellTiter-Glo Luminescent Cell Viability Assay, ATP quantitation, percent of vehicle control)
quantityMeasured: Average Cell Viability after 24 Hours (% DMSO)

compound: COc1ccc(OC)c(NC(=O)C2C3CCC(O3)C2C(=O)O)c1 (centres unmarked)
obsValue: 86.33
//
compound: Oc1cc(-c2ccc(F)cc2)nn1-c1nc2ccccc2[nH]1
obsValue: 100.67
//
compound: CCCCC(=O)NC(c1ccccc1Cl)c1cc([N+](=O)[O-])c2cccnc2c1O (centres unmarked)
obsValue: 76.88
//
compound: Cc1sc(CO)c(Sc2ccccc2)c1C(=O)O
obsValue: 109.57
//
compound: O=C(Nc1nc(-c2ccccn2)cs1)c1cccc(S(=O)(=O)N2CCOCC2)c1
obsValue: 86.99
//
compound: CCOC(=O)c1c(NC(=O)CCN2C(=O)c3ccccc3C2=O)sc2c1CCC(C)C2 (centres unmarked)
obsValue: 82.75
//
compound: Cc1nc(-n2nc(C)c(CCC(=O)Nc3ccc(Br)cc3)c2O)sc1C
obsValue: 74.45
//
compound: Cc1ccc(Cc2c(C)nn(-c3nc4ccccc4[nH]3)c2O)cc1
obsValue: 35.07

====

System: viable cells in culture
testProtocol: Cell viability assay (CellTiter-Glo Luminescent Cell Viability Assay, ATP quantitation, percent of vehicle control)
Examples of molecules with documented Average Cell Viability after 24 Hours (% DMSO) follow.
quantityMeasured: Average Cell Viability after 24 Hours (% DMSO)

molecule: O=C(CSc1ccc(-c2ccccn2)nn1)Nc1ccc2c(c1)OCCO2 [compound 1256]
obsValue: 73.30

molecule: CCCCN1C(C(=O)c2ccccc2)=C(OC(=O)c2ccco2)c2ccccc2S1(=O)=O [compound 1216]
obsValue: 42.91

molecule: Cc1nn2c(=O)cc(-c3ccccc3)[nH]c2c1-c1ccc(F)cc1 [compound 1152]
obsValue: 73.68

molecule: O=C(NNC1=C(C(=O)C(F)(F)F)CCC1)c1ccc(Br)cc1 [compound 1276]
obsValue: 92.70

molecule: O=C(N/N=C/c1c(O)ccc2ccccc12)c1ccc(Cl)c(Cl)c1 [compound 1266]
obsValue: 50.17

molecule: CCCCCC(=O)N/N=C(/C)c1ccccn1 [compound 1294]
obsValue: 74.63

molecule: COc1cccc(C(=O)NC(c2ccc(OC)c(OC)c2)c2cc(Cl)c3cccnc3c2O)c1 (stereo not shown) [compound 1013]
obsValue: 74.96

molecule: COC(=O)COc1ccc(S(=O)(=O)NCc2ccc(C)cc2)cc1 [compound 1551]
obsValue: 40.32

molecule: O=C(Nc1ccc(OC(F)(F)C(F)F)cc1)c1ccccc1O [compound 1386]
obsValue: 30.71

molecule: COC(=O)c1ccc(COC(=O)CCS(=O)(=O)c2ccc(C)cc2)cc1 [compound 1549]
obsValue: 99.71

molecule: Cc1csc(-n2nc(C)c(CC(=O)Nc3ccc(Br)cc3)c2O)n1 [compound 1123]
obsValue: 79.37

molecule: CCCCNC(=O)c1cc(-c2ccco2)on1 [compound 1191]
obsValue: 95.11

molecule: COc1cc(C2C(C(=O)c3ccc(C)o3)=C(O)C(=O)N2CCCN2CCOCC2)cc(OC)c1OC (stereo not shown) [compound 1403]
obsValue: 95.26

====

Test system: viable cells in culture
testProtocol: Cell viability assay (CellTiter-Glo Luminescent Cell Viability Assay, ATP quantitation, percent of vehicle control)
quantityMeasured: Average Cell Viability after 24 Hours (% DMSO)

compound: O=C(CN1C(C(=O)c2ccccc2)=C(N2CCCCC2)c2ccccc2S1(=O)=O)c1ccccc1 [compound 1211]
assaySystem: viable cells in culture
obsValue: 81.77
--
compound: Oc1c(C(Nc2ccccn2)c2ccc(OC3CCCC3)cc2)ccc2cccnc12 (stereo not drawn) [compound 1004]
assaySystem: viable cells in culture
obsValue: 54.71
--
compound: COc1ccc(CCNC(=O)c2cc(-c3cccs3)on2)cc1O [compound 1502]
assaySystem: viable cells in culture
obsValue: 91.65
--
compound: Nc1c(C(=O)Nc2ccc(Cl)c(Cl)c2)sc2nc3c(cc12)CCCC3 [compound 1317]
assaySystem: viable cells in culture
obsValue: 88.17
--
compound: O=C(N/N=C/c1c(O)ccc2ccccc12)c1ccc(CO)nc1 [compound 1527]
assaySystem: viable cells in culture
obsValue: 89.01
--
compound: CC(C)(C)c1ccc(C(=O)NC(=S)Nc2c(Cl)cc(Cl)cc2Cl)cc1 [compound 1411]
assaySystem: viable cells in culture
obsValue: 92.66
